- Assay comment: Cmax in SCID mouse at 10 mg/kg, po
- Format: ADME, organism-based
- Design: dose 10 mg/kg, route oral
- Assay context: in vivo
Reported metric: Cmax (ng/mL)
Give just the number in ng/mL; leave the unit off.

Suppose we examine the molecule COc1cc(C2CCN(CC(N)=O)CC2)ccc1Nc1ncc2ccc(-c3ccccc3OC)n2n1 ; what Cmax value has been reported?
3470

* * *

Below, each entry is listed alongside its reported half-life at 0.5 µM.
- Assay comment: Half life in human liver microsomes at 0.5 uM preincubated for 10 mins before NADPH and UDPGA challenge
- Assay type: ADME, Microsome
Give just the number in min; leave the unit off.

- Molecular string: "COc1cc(C2CCNCC2)ccc1Nc1ncc2ccc(-c3ccccc3N(C)S(C)(=O)=O)n2n1"
  Val: 7

Moving on to the next molecule.
Suppose we examine the molecule COc1cc(C2CCN(CC(N)=O)CC2)ccc1Nc1ncc2c(C)cc(-c3ccccc3N(C)S(C)(=O)=O)n2n1 ; what half-life at 0.5 µM value has been reported?
18

* * *

- Measured target: ALK tyrosine kinase receptor (Homo sapiens, UniProt Q9UM73)
- Sequence (Q9UM73 whole entry, the tested form may be a part): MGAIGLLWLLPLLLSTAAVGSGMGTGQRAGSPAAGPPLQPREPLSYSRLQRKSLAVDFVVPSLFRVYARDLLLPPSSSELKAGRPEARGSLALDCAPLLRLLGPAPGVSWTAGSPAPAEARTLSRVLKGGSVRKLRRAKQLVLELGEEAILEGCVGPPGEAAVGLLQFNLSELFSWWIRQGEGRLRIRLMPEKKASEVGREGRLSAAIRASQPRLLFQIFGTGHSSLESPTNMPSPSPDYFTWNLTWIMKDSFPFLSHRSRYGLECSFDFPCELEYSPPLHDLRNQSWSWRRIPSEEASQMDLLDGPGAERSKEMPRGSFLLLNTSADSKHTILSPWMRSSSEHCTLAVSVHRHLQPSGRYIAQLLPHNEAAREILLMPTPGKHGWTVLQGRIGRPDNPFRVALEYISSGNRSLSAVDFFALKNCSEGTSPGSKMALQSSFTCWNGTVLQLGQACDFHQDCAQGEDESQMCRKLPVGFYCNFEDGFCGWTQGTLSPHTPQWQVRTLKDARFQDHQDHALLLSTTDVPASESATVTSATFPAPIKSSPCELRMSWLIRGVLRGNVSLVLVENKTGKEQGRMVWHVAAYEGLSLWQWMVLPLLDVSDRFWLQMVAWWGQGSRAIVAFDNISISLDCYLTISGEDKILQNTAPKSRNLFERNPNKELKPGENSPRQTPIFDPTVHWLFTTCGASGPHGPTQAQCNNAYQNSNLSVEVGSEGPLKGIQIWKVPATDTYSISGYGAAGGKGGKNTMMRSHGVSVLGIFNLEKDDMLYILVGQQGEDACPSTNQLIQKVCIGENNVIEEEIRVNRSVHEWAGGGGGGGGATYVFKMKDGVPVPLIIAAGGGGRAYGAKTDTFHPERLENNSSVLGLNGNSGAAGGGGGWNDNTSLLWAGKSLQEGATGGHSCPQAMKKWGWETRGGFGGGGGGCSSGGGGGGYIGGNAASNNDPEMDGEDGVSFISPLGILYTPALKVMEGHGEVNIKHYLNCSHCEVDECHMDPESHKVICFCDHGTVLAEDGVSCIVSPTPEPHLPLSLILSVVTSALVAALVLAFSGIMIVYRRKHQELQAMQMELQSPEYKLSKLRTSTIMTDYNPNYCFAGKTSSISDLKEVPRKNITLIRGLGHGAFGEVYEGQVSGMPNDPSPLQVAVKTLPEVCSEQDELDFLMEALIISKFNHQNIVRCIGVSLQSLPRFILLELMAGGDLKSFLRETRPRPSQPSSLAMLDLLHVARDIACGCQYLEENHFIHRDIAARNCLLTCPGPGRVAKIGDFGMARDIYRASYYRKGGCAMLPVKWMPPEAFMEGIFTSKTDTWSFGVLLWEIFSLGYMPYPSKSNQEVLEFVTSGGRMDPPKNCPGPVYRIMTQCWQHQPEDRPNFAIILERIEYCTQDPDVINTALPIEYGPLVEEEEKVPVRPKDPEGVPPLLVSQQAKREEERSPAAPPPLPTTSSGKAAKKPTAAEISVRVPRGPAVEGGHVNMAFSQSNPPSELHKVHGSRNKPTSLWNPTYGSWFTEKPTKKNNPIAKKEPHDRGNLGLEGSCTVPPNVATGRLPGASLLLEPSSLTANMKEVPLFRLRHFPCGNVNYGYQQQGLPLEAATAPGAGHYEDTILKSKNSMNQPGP
- Assay comment: Inhibition of GST-tagged human ALK cytoplasmic domain (1058-1620) expressed in Sf21 insect cells using GST-tagged human recombinant PLC-gamma/substrate by ELISA
Kindly apply the following: true if IC50 is less than 10 nM, false in every other case.

Recorded results for 2 compounds are shown here.
- Compound: "COc1ccc(-c2ccc3cnc(Nc4ccc(C5CCN(CC(N)=O)CC5)cc4OC)nn23)c(OC)c1"
  Group label: "false"
- Compound: "COc1ccc(N2CCN(C)CC2)cc1Nc1ncc2ccc(-c3ccccc3N(C)S(C)(=O)=O)n2n1"
  Group label: "false"

In the record for COc1cc(C2CCN(C[C@@H](C)O)CC2)ccc1Nc1ncc2ccc(-c3ccccc3N(C)S(C)(=O)=O)n2n1 , is IC50 less than 10 nM?
true

Queued: COc1cc(N2CCN(C[C@H](C)O)CC2)c(F)cc1Nc1ncc2ccc(-c3ccccc3N(C)S(C)(=O)=O)n2n1
false

Queued: COc1cc(C2CCN(CC(O)CF)CC2)ccc1Nc1ncc2ccc(-c3ccccc3OC)n2n1 (racemic)
true

* * *

Below, each entry is listed alongside its reported half-life at 0.5 µM.
- Assay comment: Half life in Sprague-Dawley rat liver microsomes at 0.5 uM preincubated for 10 mins before NADPH and UDPGA challenge
- Assay type: ADME, Microsome

- Molecular string: "COc1cc(C2CCN(CC(N)=O)CC2)ccc1Nc1ncc2c(O)cc(-c3ccccc3N(C)S(C)(=O)=O)n2n1"
  half-life at 0.5 µM: "< 5 min"

Suppose we examine the compound COc1cc(C2CCN(C[C@@H](C)O)CC2)ccc1Nc1ncc2ccc(-c3ccccc3OC)n2n1 ; what half-life at 0.5 µM value has been reported?
> 40 min

Queued: COc1cc(C2CCN(CC(N)=O)CC2)ccc1Nc1ncc2ccc(-c3ccccc3OC)n2n1
> 40 min

* * *

Below, each entry is listed alongside its reported half-life at 0.5 µM.
- Assay comment: Half life in human liver microsomes at 0.5 uM preincubated for 10 mins before NADPH and UDPGA challenge
- Type: ADME, Microsome

- Molecular string: "COc1cc(C2CCN(CCO)CC2)ccc1Nc1ncc2ccc(-c3ccccc3N(C)S(C)(=O)=O)n2n1"
  half-life at 0.5 µM: "< 5 min"
- Molecular string: "COc1cc(C2CCN(C[C@@H](C)O)CC2)ccc1Nc1ncc2ccc(-c3ccccc3OC)n2n1"
  half-life at 0.5 µM: "> 40 min"

Suppose we examine the compound COc1cc(C2CCN(CC(N)=O)CC2)ccc1Nc1ncc2ccc(-c3ccccc3OC)n2n1 ; what half-life at 0.5 µM value has been reported?
> 40 min
